These data points were gathered from ChEMBL document CHEMBL1629654.

System: Candida albicans
Test: Antimicrobial activity against Candida albicans isolate C after 48 hrs by microdilution method
Type: functional
*1 amine or outer side, *2 acyl side, *3 side chain or, on linkers, in order; H or OH if unused. Where a SMILES comes first, the peptide text is derived from it. Bridges are numbered along the chain shown (N, C = ends). [ ]: non-standard residue; d: D form. The star is where a group is joined. pTerphenylCO(4''-OnC5H11) = CCCCCOc1ccc(-c2ccc(-c3ccc(C(=O)*)cc3)cc2)cc1; Orn(4R-OH,5R-OH) = O=C([C@H](C[C@@H](O)[C@@H](O)N[*:3])N[*:1])[*:2]; hTyr(3S-OH,4S-OH) = N[C@H](C(=O)O)[C@H](O)[C@@H](O)c1ccc(O)cc1; Pro(3S-OH,4S-Me) = C[C@H]1CN[C@H](C(=O)O)[C@H]1O; Hyp = O=C(O)[C@@H]1C[C@@H](O)CN1
property-label: MIC

What MIC value was documented for this compound, CCCCCOc1ccc(-c2ccc(-c3ccc(C(=O)N[C@H]4C[C@@H](O)[C@@H](O)NC(=O)[C@@H]5[C@@H](O)[C@@H](C)CN5C(=O)[C@H]([C@@H](C)O)NC(=O)[C@H]([C@H](O)[C@@H](O)c5ccc(O)cc5)NC(=O)[C@@H]5C[C@@H](O)CN5C(=O)[C@H]([C@@H](C)O)NC4=O)cc3)cc2)cc1 [ANIDULAFUNGIN] ({pTerphenylCO(4''-OnC5H11)}-[Orn(4R-OH,5R-OH)]T[Hyp][hTyr(3S-OH,4S-OH)]T[Pro(3S-OH,4S-Me)]; lactam 1-C) ?
≤ 0.015 µg/mL

Returns the measured MIC for the input compound. Input: CCC(C)n1ncn(-c2ccc(N3CCN(c4ccc(OCC5COC(Cn6cncn6)(c6ccc(Cl)cc6Cl)O5)cc4)CC3)cc2)c1=O (stereo not drawn)
≤ 0.03 µg/mL

Please report the recorded MIC for CC[C@@H]([C@H](C)O)n1ncn(-c2ccc(N3CCN(c4ccc(OC[C@@H]5CO[C@@](Cn6cncn6)(c6ccc(F)cc6F)C5)cc4)CC3)cc2)c1=O .
≤ 0.03 µg/mL
